- System: Mus musculus
- assay method text: Anticonvulsant activity in albino CF1 mouse assessed as protection against maximal electroshock-induced seizures at 100 mg/kg, ip measured after 1 hr
- Assay type: functional, organism-based
- Set-up: dose 100 mg/kg
The source made the active and inactive calls. The rule behind the calls is not given here.
Labels: active, inactive

item smiles: O=C1NC(=O)[C@@H]2CCCN2[C@H]1c1cc(F)cc(F)c1
group: inactive
//
item smiles: Cl.O=C1NC(=O)[C@@H](c2cccc(C(F)(F)F)c2)N2CCC[C@H]12
group: inactive
//
item smiles: O=C1NC(=O)[C@@H](c2cccc(C(F)(F)F)c2)N2CCCC[C@@H]12
group: inactive
//
item smiles: O=C1NC(=O)[C@@H](c2cccc(C(F)(F)F)c2)N2CCCC[C@H]12
group: active
//
item smiles: O=C1NC(=O)[C@@H](c2cccc(C(F)(F)F)c2)N2CCC[C@@H]12
group: inactive
//
item smiles: O=C1NC(=O)[C@@H]2CCCN2[C@H]1c1ccc(C(F)(F)F)cc1
group: active
//
item smiles: O=C1NC(=O)[C@@H]2CCCN2[C@H]1c1ccc(F)cc1
group: active
//
item smiles: O=C1NC(=O)[C@@H]2CCCN2[C@H]1c1cccc(OC(F)(F)F)c1
group: active

###

- Test system: Rattus norvegicus
- assay method text: Neurotoxicity in MES Sprague-Dawley rat model at 30 mg/kg, po measured after 1 hr
- Type: toxicity, organism-based
- Parameters: dose 30 mg/kg, route oral
- experimental context: in vivo
test readout: Activity

molecule: O=C1NC(=O)[C@@H](c2cccc(C(F)(F)F)c2)N2CCCC[C@H]12
val: Non-toxic

molecule: Cl.O=C1NC(=O)[C@@H]2C[C@@H](O)CN2C1c1cccc(C(F)(F)F)c1 (mixture of isomers)
val: Non-toxic

molecule: O=C1NC(=O)[C@@H]2CCCN2[C@H]1c1cccc(OC(F)(F)F)c1
val: Non-toxic

molecule: O=C1NC(=O)[C@@H]2CCCN2[C@H]1c1ccccc1F
val: Non-toxic

molecule: O=C1NC(=O)[C@@H]2CCCN2[C@H]1c1cccc(F)c1
val: Non-toxic

molecule: Cl.O=C1NC(=O)[C@@H]2CCCN2[C@H]1c1cccc(C(F)(F)F)c1
val: Non-toxic

###

- assay method text: Neurotoxicity in ip dosed Sprague-Dawley rat
- Format: toxicity, organism-based
- experimental context: in vivo
TD50 reference
test readout: TD50 (µmol/kg)

item smiles: O=C1NC(=O)[C@@H]2CCCN2[C@H]1c1cccc(OC(F)(F)F)c1
val: 114
--
item smiles: O=C1NC(=O)C(c2ccccc2)(c2ccccc2)N1
val: 66

###

- Tested on: Rattus norvegicus
- assay method text: Anticonvulsant activity in Sprague-Dawley rat assessed as protection against maximal electroshock-induced seizures at 30 mg/kg, po measured after 4 hrs
- Type: functional, organism-based
- Design: dose 30 mg/kg
Active and inactive are the calls of the source. No cut-off for these calls is given here.

molecule: Cl.O=C1NC(=O)[C@@H]2C[C@@H](O)CN2C1c1cccc(C(F)(F)F)c1 (mixture of isomers)
Activity: inactive
--
molecule: O=C1NC(=O)[C@@H](c2cccc(C(F)(F)F)c2)N2CCCC[C@H]12
Activity: inactive
--
molecule: O=C1NC(=O)[C@@H]2CCCN2[C@H]1c1cccc(F)c1
Activity: inactive
--
molecule: O=C1NC(=O)[C@@H]2CCCN2[C@H]1c1ccccc1F
Activity: inactive
--
molecule: O=C1NC(=O)[C@@H]2CCCN2[C@H]1c1cccc(OC(F)(F)F)c1
Activity: inactive
--
molecule: Cl.O=C1NC(=O)[C@@H]2CCCN2[C@H]1c1cccc(C(F)(F)F)c1
Activity: inactive

###

selectivity ratio reference
- assay method text: Protective index, ratio of TD50 for neurotoxicity in ip dosed Sprague-Dawley rat to ED50 for anticonvulsant activity in ip dosed MES Sprague-Dawley rat model
- Type: toxicity, organism-based
- experimental context: in vivo, read-out: Ratio TD50/ED50
test readout: selectivity ratio

compound: CCCC(CCC)C(=O)[O-].[Na+] [VALPROATE SODIUM]
val: 2.1
//
compound: O=C1NC(=O)[C@@H]2CCCN2[C@H]1c1cccc(OC(F)(F)F)c1
val: 2.8
//
compound: O=C1NC(=O)C(c2ccccc2)(c2ccccc2)N1 [PHENYTOIN]
val: 6.4

###

- Tested on: Rattus norvegicus
- assay method text: Neurotoxicity in MES Sprague-Dawley rat model at 30 mg/kg, ip measured after 2 hrs
- Format: toxicity, organism-based
- Parameters: dose 30 mg/kg, route intraperitoneal
- experimental context: in vivo

compound: O=C1NC(=O)[C@@H](c2cccc(C(F)(F)F)c2)N2CCCC[C@H]12
Activity: Non-toxic
--
compound: O=C1NC(=O)[C@@H]2CCCN2[C@H]1c1ccccc1F
Activity: Non-toxic
--
compound: O=C1NC(=O)[C@@H]2CCCN2[C@H]1c1ccc(C(F)(F)F)cc1
Activity: Non-toxic
--
compound: Cl.O=C1NC(=O)[C@@H]2C[C@@H](O)CN2C1c1cccc(C(F)(F)F)c1 (mixture of isomers)
Activity: Non-toxic
--
compound: O=C1NC(=O)[C@@H]2CCCCN2[C@H]1c1cccc(C(F)(F)F)c1
Activity: Non-toxic
--
compound: O=C1NC(=O)[C@@H]2CCCN2[C@H]1c1cccc(OC(F)(F)F)c1
Activity: Non-toxic
--
compound: Cl.O=C1NC(=O)[C@@H]2CCCN2[C@H]1c1cccc(C(F)(F)F)c1
Activity: Non-toxic

###

- Test system: Mus musculus
- assay method text: Neurotoxicity in albino CF1 mouse at 100 mg/kg, ip measured after 0.25 hr
- Format: toxicity, organism-based
- Set-up: dose 100 mg/kg, route intraperitoneal
- experimental context: in vivo

compound: O=C1NC(=O)[C@@H](c2cccc(C(F)(F)F)c2)N2CCC[C@@H]12
target: Mus musculus
Activity: Toxic

compound: O=C1NC(=O)[C@@H]2CCCN2[C@H]1c1c(F)cccc1Cl (mixture of isomers)
target: Mus musculus
Activity: Non-toxic

compound: O=C1NC(=O)[C@@H]2CCCN2[C@H]1c1ccc(C(F)(F)F)cc1
target: Mus musculus
Activity: Non-toxic

compound: O=C1NC(=O)[C@@H]2CCCN2[C@H]1c1cccc(OC(F)(F)F)c1
target: Mus musculus
Activity: Toxic

compound: O=C1NC(=O)[C@@H]2CCCN2[C@H]1c1ccccc1C(F)(F)F
target: Mus musculus
Activity: Non-toxic

compound: O=C1NC(=O)[C@H](c2cccc(C(F)(F)F)c2)N2CCC[C@H]12
target: Mus musculus
Activity: Non-toxic

compound: O=C1NC(=O)[C@@H]2CCCN2[C@H]1c1cc(F)cc(F)c1
target: Mus musculus
Activity: Non-toxic

compound: O=C1NC(=O)[C@@H]2CCCCN2[C@H]1c1cccc(C(F)(F)F)c1
target: Mus musculus
Activity: Non-toxic

compound: O=C1NC(=O)[C@H](c2cccc(C(F)(F)F)c2)N2CCCC[C@H]12
target: Mus musculus
Activity: Non-toxic

compound: Cl.O=C1NC(=O)[C@@H](c2cccc(C(F)(F)F)c2)N2CCC[C@H]12
target: Mus musculus
Activity: Non-toxic

###

- Test system: Mus musculus
- assay method text: Neurotoxicity in albino CF1 mouse at 100 mg/kg, ip measured after 0.25 hr
- Format: toxicity, organism-based
- Set-up: dose 100 mg/kg, route intraperitoneal
- experimental context: in vivo

compound: O=C1NC(=O)[C@@H]2CCCN2[C@H]1c1c(F)cccc1F (mixture of isomers)
target: Mus musculus
Activity: Non-toxic
--
compound: O=C1NC(=O)[C@@H]2CCCN2[C@H]1c1ccccc1F
target: Mus musculus
Activity: Toxic
--
compound: Cl.O=C1NC(=O)[C@@H]2CCCN2[C@H]1c1cccc(C(F)(F)F)c1
target: Mus musculus
Activity: Toxic
--
compound: O=C1NC(=O)[C@@H](c2cccc(C(F)(F)F)c2)N2CCCC[C@H]12
target: Mus musculus
Activity: Non-toxic
--
compound: O=C1NC(=O)[C@@H]2CCCN2[C@H]1c1ccc(F)cc1
target: Mus musculus
Activity: Non-toxic
--
compound: O=C1NC(=O)[C@@H]2CCCN2[C@H]1c1cccc(F)c1
target: Mus musculus
Activity: Non-toxic
--
compound: O=C1NC(=O)[C@@H](c2cccc(C(F)(F)F)c2)N2CCCC[C@@H]12
target: Mus musculus
Activity: Non-toxic

###

- System: Mus musculus
- assay method text: Anticonvulsant activity in albino CF1 mouse assessed as protection against subcutaneous metrazol-induced seizures at 100 mg/kg, ip measured after 4 hrs
- Format: functional, organism-based
- Design: dose 100 mg/kg
Calls of active or inactive are those of the source. No cut-off for these calls is given here.

molecule: O=C1NC(=O)[C@@H]2CCCN2[C@H]1c1cc(F)cc(F)c1
Activity: inactive
--
molecule: O=C1NC(=O)[C@@H]2CCCN2[C@H]1c1ccccc1F
Activity: inactive
--
molecule: O=C1NC(=O)[C@H](c2cccc(C(F)(F)F)c2)N2CCC[C@H]12
Activity: inactive
--
molecule: O=C1NC(=O)[C@@H]2CCCN2[C@H]1c1ccccc1C(F)(F)F
Activity: inactive
--
molecule: O=C1NC(=O)[C@@H]2CCCN2[C@H]1c1ccc(C(F)(F)F)cc1
Activity: inactive
--
molecule: O=C1NC(=O)[C@@H](c2cccc(C(F)(F)F)c2)N2CCCC[C@H]12
Activity: inactive
--
molecule: O=C1NC(=O)[C@@H]2CCCN2[C@H]1c1cccc(F)c1
Activity: inactive
--
molecule: O=C1NC(=O)[C@@H]2CCCN2[C@H]1c1c(F)cccc1Cl (mixture of isomers)
Activity: inactive
--
molecule: O=C1NC(=O)[C@@H]2CCCN2[C@H]1c1c(F)cccc1F (mixture of isomers)
Activity: inactive
--
molecule: O=C1NC(=O)[C@@H]2CCCCN2[C@H]1c1cccc(C(F)(F)F)c1
Activity: inactive
--
molecule: O=C1NC(=O)[C@@H](c2cccc(C(F)(F)F)c2)N2CCC[C@@H]12
Activity: inactive
--
molecule: O=C1NC(=O)[C@@H]2CCCN2[C@H]1c1ccc(F)cc1
Activity: inactive
--
molecule: Cl.O=C1NC(=O)[C@@H]2CCCN2[C@H]1c1cccc(C(F)(F)F)c1
Activity: inactive

src = ChEMBL document CHEMBL3352057
